Value source: PubChem BioAssay

Experiment: antimalarial activity against Dd2 strain (AID 2302);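 further: 0% = DMSO untreated growth and 100% = chloroquine plus artemisinin killed control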
Details: P. falciparum Dd2 in RBCs, LDH growth readout, 72 h; at 2 µM; stronger effect = higher value
Calls of active or inactive are those of the source.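 How the source made its calls: active means growth inhibition above 50% at the single 2 µM test dose, taken to imply half-maximal potency below 2 µM; inactive means the rest.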
The entries below are paired with their reported growth inhibition.

Give the measured growth inhibition of CCN(CC)CCN(Cc1ccc(-c2ccc(C(F)(F)F)cc2)cc1)C(=O)Cn1c(CCc2cc(F)cc(F)c2F)nc(=O)c2ccccc21 .
77% (active)

CCCc1cc(Cc2cnc(N)nc2N)cc(CCC)c1OCCCCC(=O)O ?
23% (inactive)

Request: Cc1cc(N)c2cc(NC(=O)CCC(=O)Nc3ccc4nc(C)cc(N)c4c3)ccc2n1
77% (active)

Entry Fc1ccc2nc(-c3cccc(-c4cccc(CNCCN5CCNCC5)c4)c3)[nH]c2c1 please
4% (inactive)

Next: CN(C)CCNC(=O)c1cccc(-c2cnc3ccc(NCc4ccc(Cl)c(Cl)c4)nn23)c1
53% (active)

What do we get for COc1ccccc1N1CCN(C(C(=O)NCc2ccc3c(c2)OCO3)c2ccc(C)cc2)CC1 (stereo not given) ?
81% (active)

One more compound: COc1ccc2ncc(F)c([C@H](O)CN3CCC(NCc4ccc5c(c4)NC(=O)CS5)CC3)c2c1
98% (active)

Continue with O=S(=O)(c1cc(Cl)ccc1Cl)N1CCCCC(c2ccc(C(F)(F)F)cc2)=N1
68% (active)

Also NC(=O)N1CCN(Cc2ccc(Br)cc2)CC1 ?
0% (inactive)

Try the compound N#Cc1ccc(C=Cc2nccc3c2[nH]c2ccccc23)cc1
28% (inactive)

And the next one, O=C(Nc1cccc(-c2cccc(-c3ccc(F)cc3)n2)c1)c1ccc([N+](=O)[O-])o1 ?
42% (inactive)

Check Cc1cccc2[nH]c(-c3cccc(-c4cccc(CN5CCN(c6ccc(C#N)cn6)CC5)c4)c3)nc12 too.
34% (inactive)

Next record, please: Cc1cc(CNC(=O)c2ccc(-c3ccc(-c4nc5ccc(C(F)(F)F)cc5[nH]4)s3)cc2)on1
56% (active)

Consider next the compound Cc1ccc2nc(C)cc(NN=Cc3ccc([N+](=O)[O-])cc3)c2c1 in the same way.
15% (inactive)

And CCCCN(CCCC)CCCCCCNc1c2ccccc2nc2ccccc12 ?
87% (active)

Same question for Cc1cc(N[C@@H](Cc2ccccc2)C(=O)NCCOc2ccccc2)nc(Nc2ccccc2)n1 please.
63% (active)

Quick one: COc1ccc(C2CC(=O)C3=C(C2)NC(C)=C(C(=O)OC(C)C)C3c2ccc(O)cc2)cc1OC (stereo not given)
98% (active)

Also check Cc1ccc2c(OCCN3CCC(Cc4cc5c(cc4F)OCC(=O)N5)CC3)cc(F)cc2n1
71% (active)

Another: O=C(Cc1cnc[nH]1)Nc1cccc(-c2ccc(-c3nc4ccc(F)cc4[nH]3)cc2)c1
84% (active)

Check CN(C)Cc1cccc(-c2ccc(NC(=O)c3ccc4c(=O)n(C5CCCCC5)cnc4c3)cc2)c1 too.
53% (active)
